Record form. Attribute: CAMK1G (STD-NMR hit flag). Fill in for each entry.
# assay_target: CAMK1G (1-320) (Homo sapiens, UniProt Q96NX5)
# Construct: made in house; host or cells: E. coli BL21 (DE3) pLysS
# Sequence (Q96NX5 1-320): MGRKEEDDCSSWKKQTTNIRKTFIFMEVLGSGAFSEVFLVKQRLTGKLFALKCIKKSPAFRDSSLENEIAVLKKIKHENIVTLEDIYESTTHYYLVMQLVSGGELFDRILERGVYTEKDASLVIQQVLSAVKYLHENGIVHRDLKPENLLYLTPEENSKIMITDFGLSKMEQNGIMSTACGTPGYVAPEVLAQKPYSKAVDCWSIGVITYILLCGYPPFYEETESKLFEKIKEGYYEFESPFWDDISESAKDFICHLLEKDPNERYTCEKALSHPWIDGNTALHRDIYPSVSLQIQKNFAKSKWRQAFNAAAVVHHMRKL
# assay_protocol: STD-NMR fragment screening, CAMK1G
# Format: binding
# assay_conditions: 1 = hit, 0 = no hit
# Description: All fragments were stored at −20°C as solids in argon flushed glass bottles. For NMR screening, fragments were weighed and dissolved in DMSO-d6 to a stock concentration of 300 mM. Mother plates were prepared with a 100 mM concentration. […] Fifteen of these compounds contain the same halogen twice. […] As fragment mixtures can lead to competitive effects between their fragments, it is not advised to use the quantification of peak mixtures for hit ranking.
Answer with a number only.

I am curious: what CAMK1G (STD-NMR hit flag) value has been reported for Clc1cccc2nnnn12 [Fragment B02291229] ?
0

How about this molecule: CCOC(=O)c1coc(Cl)n1 [Fragment B02289613]
0

How about this molecule: Clc1ccc(CN2CCNCC2)s1 [Fragment B02291241]
0

How about this molecule: Brc1cnc2cnccn12 [Fragment B02289617]
1

How about this molecule: OB(O)c1ccc(Cl)nc1F [Fragment B02289599]
0

How about this molecule: O=C(O)c1ncc(Cl)cc1Cl [Fragment B02297418]
0

How about this molecule: NC(=O)c1nc(Cl)n[nH]1 [Fragment B02290118]
0

How about this molecule: O=C1CCS(=O)(=O)c2ccc(Cl)cc21 [Fragment B02291253]
1

How about this molecule: O=C(O)c1cc(Br)c[nH]c1=O [Fragment B02290523]
0

How about this molecule: O=c1[nH]cc(Br)c(=O)[nH]1 [Fragment B02291248]
1

How about this molecule: CN1CCN(c2ccc(Br)cn2)CC1 [Fragment B02297404]
0
